assayed.target: Cloned human M1 receptor (CHRM1) (Homo sapiens)
Sequence (P11229 whole entry): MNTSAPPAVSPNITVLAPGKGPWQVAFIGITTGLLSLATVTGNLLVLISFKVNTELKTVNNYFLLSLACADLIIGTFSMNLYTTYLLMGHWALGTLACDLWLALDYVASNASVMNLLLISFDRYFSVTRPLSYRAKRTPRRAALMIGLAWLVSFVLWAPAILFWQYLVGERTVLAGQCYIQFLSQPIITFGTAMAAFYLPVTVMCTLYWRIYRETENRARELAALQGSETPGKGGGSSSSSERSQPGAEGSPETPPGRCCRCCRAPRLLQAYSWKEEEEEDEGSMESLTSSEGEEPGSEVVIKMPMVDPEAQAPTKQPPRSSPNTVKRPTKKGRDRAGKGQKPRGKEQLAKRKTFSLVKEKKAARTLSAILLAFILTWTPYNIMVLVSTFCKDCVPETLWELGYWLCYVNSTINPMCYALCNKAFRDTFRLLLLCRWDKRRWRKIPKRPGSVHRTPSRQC
experiment.description: CHRM1 Ca++ Flux Assay (HEK293 M1 cells, agonist mode)
particulars: geometric mean if tested more than once, read-out: M1 FDSS EC50
Reported values of log10 of EC50 for individual entries
observation.type: log10 of EC50 (log10 of the value in µM)

molecule	result
Fc1ccc(OC[C@@H]2COCCO2)c(C2CCN([C@@H]3COC4(C3)CN(c3nnco3)C4)CC2)c1	-0.43
c1ccc(C2CCN([C@@H]3COC4(C3)CN(c3ncco3)C4)CC2)c(O[C@H]2CCOC2)c1	-0.13
Fc1ccc(OCC2C3COCC32)c(C2CCN([C@@H]3COC4(C3)CN(c3nnco3)C4)CC2)c1 (stereo partly shown)	0.70
Fc1cc(OC2COC2)c(C2CCN([C@@H]3COC4(C3)CN(c3nnco3)C4)CC2)cc1F	-0.58
CC(C)(O)CCOc1ccc(F)cc1C1CCN([C@@H]2COC3(C2)CN(c2nnco2)C3)CC1	-0.42
CC(C)(O)COc1ccccc1C1CCN([C@@H]2COC3(C2)CN(c2ncns2)C3)CC1	0.30
Fc1cc(F)c(O[C@@H]2CCOC2)c(C2CCN([C@@H]3COC4(C3)CN(c3nnco3)C4)CC2)c1	0.34
